Let's look at some compounds and their measured IC50.
Tested on: HL-60
assayNotes: Cytotoxicity against human HL60 cells after 72 hrs by MTT assay
Assay type: functional, cell-based
measurementConditions: HL-60, 72 h
measurementName: IC50 (nM)

[[record]]
compound = "COc1ccc([S+]([O-])c2cc(OC)c(OC)c(OC)c2)cc1 (stereo not drawn)"
studysystem = "HL-60"
measurementname = "IC50"
reported = 340

[[record]]
compound = "COc1ccc(S(=O)(=O)c2cc(OC)c(OC)c(OC)c2)cc1"
studysystem = "HL-60"
measurementname = "IC50"
reported = 4750

[[record]]
compound = "COc1ccc(Sc2cc(OC)c(OC)c(OC)c2)cc1"
studysystem = "HL-60"
measurementname = "IC50"
reported = 3

